Target: Dihydroorotate dehydrogenase (quinone), mitochondrial (Plasmodium falciparum (isolate 3D7))
Experiment: inhibition of P. falciparum DHODH – biochemical, C-terminal His tag, absorbance 600 nm, primary screen (AID 1175);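 also: recombinant parasite enzyme with a five histidine tag at its C terminus; test concentration not given here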
Conditions: PfDHODH enzyme, DCIP absorbance 600 nm, called active from +8 up or from −8 down
Calls of active or inactive are those of the source.
Allowed answers: class 1 (active), class 0 (inactive)

Solved entries (count: 3):
{"columns": ["Compound", "Discrete label"],
 "data": [
  ["Cc1ccc(NN2C(C(O)c3c(F)cccc3Cl)C=CC3C(=O)N(C4CCCCC4)C(=O)C32)cc1 (stereo unspecified)", "class 0"],
  ["COc1ccc(C#Cc2ccc3c(c2)[C@]2(C(=O)N3)[C@H](c3ccc(O)cc3)N3[C@H](c4ccccc4)[C@H](c4ccccc4)OC(=O)[C@H]3[C@@H]2C(=O)Nc2nc3ccccc3s2)cc1", "class 1"],
  ["O=C1OCCC=C[C@H]2OC34C=CCN(c5ccc6ccccc6c5)C(=O)[C@H]3N(CCCO)C(=O)[C@@H]4C12 (stereo partly specified)", "class 0"]
]}

Assay outcome for CCCCC=C[C@@H](NC(=O)OCc1ccccc1Cl)c1ccccc1 : what was it?
class 0

Repeat for the following compound: O=C1C2C=CC(C(O)c3ccco3)N(Nc3ccccc3F)C2C(=O)N1c1ccccc1 (stereo unspecified)
class 0

Next entry: O=C(NCCN1CCOCC1)[C@@H]1c2ccccc2C(=O)N(C2Cc3ccccc3C2)[C@H]1c1ccc(CO)cc1
class 0

Another compound to check: COc1cc2c(cc1O)C=[N+](Cc1sc3ccccc3c1Cl)CC2
class 0

Ok, now [N-]=[N+]=NCc1ccccc1[C@@H]1OC(c2ccc(OCCCO)cc2)=N[C@]1(CCS(=O)(=O)c1ccccc1)C(=O)O
class 0

Same again, this time with [N-]=[N+]=Nc1ccccc1C[C@]1(C(=O)NCC(O)CO)COC(c2ccc(OCCCO)cc2)=N1 (stereo partly specified)
class 0

Next compound: CN(C)c1ccc(C(O)C2C=CC3C(=O)NC(=O)C3N2Nc2ccccn2)cc1 (stereo unspecified)
class 0

Then COc1ccc([Si](C)(C)[C@@H]2[C@@H](CCO)O[C@]3(C(=O)N(Cc4cccc(NC(=O)[C@H](C)O)c4)c4ccccc43)[C@H]2C)cc1 ?
class 0

Next: COc1ccc([C@H]2OC[C@@H]3C[C@H](Cc4ccccc4)C(=O)N32)cc1
class 0

Where these numbers come from: PubChem BioAssay
